// MIC lookup, one value per entry
tested on: Peptostreptococcus anaerobius 1428; assay: MIC, agar-dilution method; assay type: cell-based
Bridge positions count the residues as written; N and C are the ends. Square brackets hold non-standard residues; d marks the D form. Peptide text beside a SMILES is read from it. * marks the point of attachment. ξ: configuration not given here. Octatrienoyl(2E,4E,6E) = C/C=C/C=C/C=C/C(=O)*; Hexadienoyl(2E,4E) = C/C=C/C=C/C(=O)*; ξPro(4ξ-Me) = CC1CNC(C(=O)O)C1; NMeA = CN[CH](C)C(=O)O

- molecule: "C/C=C/C=C/C=C/C(=O)NC(Cc1ccccc1)C(=O)NC1COC(=O)C2CCCN2C(=O)C(C)NC(=O)C(C)N(C)C(=O)C2CC(C)CN2C1=O (stereo not drawn) [Factor A] ({Octatrienoyl(2E,4E,6E)}-FS[ξPro(4ξ-Me)][NMeA]AP; ester 2-C; configuration not given here)"
  measure: "MIC"
  experimental-value: "> 128 µg/mL"
- molecule: "C/C=C/C=C/C(=O)NC(Cc1ccccc1)C(=O)NC1COC(=O)C2CCCN2C(=O)C(C)NC(=O)C(C)N(C)C(=O)C2CC(C)CN2C1=O (stereo not drawn) [Factor C] ({Hexadienoyl(2E,4E)}-FS[ξPro(4ξ-Me)][NMeA]AP; ester 2-C; configuration not given here)"
  measure: "MIC"
  experimental-value: "> 128 µg/mL"

The value of MIC measured for the molecule C/C=C/C=C/C(=O)NC(Cc1ccccc1)C(=O)NC1COC(=O)C2CCCN2C(=O)C(C)NC(=O)C(C)N(C)C(=O)C2CCCN2C1=O (stereo not drawn) [Factor E] ({Hexadienoyl(2E,4E)}-FSP[NMeA]AP; ester 2-C; configuration not given here) turned out to be > 128 µg/mL

The reported measurements were obtained from patent US4492650A.
